- PROCEDURE TEXT: Identifying Small Molecule Inhibitors of Pancreatic Cancer Stem Cells (Panc1, Adherent) (AID 1259362)
- SETTINGS: viability; series mostly up to 46.1 µM
Inconclusive results are not listed. Active and inactive are the calls of the source. The call rests on the fitted dose curve; in most records, active means well fitted cell-killing curve with a large enough effect; inconclusive means small, poorly fitted or top-dose-only effect, or effect the other way, or another doubt; inactive means no such curve, though single readings can be large or run the other way.
Reply using exactly one outcome from class 1 (active), class 0 (inactive)

The following molecules have reported results that may help.
CC(C)(C(=O)NCC(F)(F)C(F)(F)F)C(=O)N[C@@H]1C(=O)Nc2ccccc2-c2ccccc21 = class 0
O=c1cc(CN2CCOCC2)occ1OCCCCCSc1ccnc2cc(C(F)(F)F)ccc12 = class 0
c1ccc2c(-c3cnn4cc(-c5ccc(N6CCNCC6)cc5)cnc34)ccnc2c1 = class 1
O=C(Nc1ccccc1-c1cn2c(CN3CCNCC3)csc2n1)c1cnc2ccccc2n1 = class 0
CC(C)[C@H](CO)Nc1nc(Nc2ccc(C(=O)O)c(Cl)c2)c2ncn(C(C)C)c2n1 = class 0
O=c1cc(N2CCOCC2)oc2c(-c3cccc4c3sc3ccccc34)cccc12 = class 1

Outcome logged for OC[C@H]1O[C@@H](n2cnc3c2NC=NC[C@@H]3O)C[C@H]1O in this assay:
class 0

Outcome logged for O=C(O)CCC1CCC(c2cc(F)ccc2F)(S(=O)(=O)c2ccc(Cl)cc2)CC1 (centres undefined) in this assay:
class 0

Outcome logged for O=C(Nc1cc(Cl)cc2c1[nH]c1cnccc12)c1cccnc1 in this assay:
class 0
